Test system: SK-MEL-2 melanoma
Experiment: NCI-60 one-dose screen, 48 h
Conditions: 10 µM
The panel holds about 83,000 compounds, 20% with a hit somewhere; the sample as a whole holds those more often. Active and inactive are the calls of the source. How the source made its calls: active means growth percent below 10; inactive means the rest.
Assign a class; possible classes are t for active, f for inactive

{"columns": ["Compound", "Label"],
 "data": [
  ["CCCCSc1nc(Nc2ccc(/C(C)=N/NC(N)=S)cc2)c(C#N)c(-c2ccc(OC)cc2)n1", "f"],
  ["N[C@@H](CSSC[C@H](N)C(=O)Nc1ccc(OCC2CCCC2)cc1)C(=O)Nc1ccc(OCC2CCCC2)cc1", "t"],
  ["CN1CCN(c2ccc(C(=O)/C=C/c3cc(Br)ccc3F)cc2)CC1", "f"],
  ["COc1ccccc1[C@H]1C(C(=O)c2ccc(Cl)cc2)C2(N[C@@H]1c1ccccc1)C(=O)Nc1ccc(Cl)cc12 (stereo partly drawn)", "t"]
]}

Challenge: Hey, what did the test say about CCC(C)S(=O)(=O)c1oc(-c2ccc(C)cc2)nc1S(=O)(=O)c1ccccc1 (stereo not drawn) ?
Response given: t

Challenge: Same thing, different compound: `Cc1ccc(-c2nc(Nc3ccccc3C(=O)O)c3ccccc3n2)cc1`
Response given: t

Challenge: Same thing, different compound: `Nc1nc(Nc2ccc(Cl)cc2)n(Cc2cccc(Br)c2)n1`
Response given: t

Challenge: Same thing, different compound: `COc1cc(/C=C/C(=O)c2ccc(C(F)(F)F)cc2)ccc1Oc1nc(Nc2ccc(F)cc2)nc(N(C)C)n1`
Response given: f

The reported numbers originate from PubChem BioAssay (NCI).
